test system: ECV-304; assay: Cytotoxic activity against ECV304 (human endothelial) cell line.; format: functional, cell-based
TEST_READOUT: IC50 (µg/mL)
One number for each entry, in µg/mL.

// below: answered compounds
Query block: Look up IC50: C=C(C)[C@@H]1CC[C@]2(C(=O)O)CC[C@]3(C)C(CCC4[C@@]5(C)CC/C(=N\Nc6ccccc6)C(C)(C)C5CC[C@]43C)C12 (some centres not stated)
Result block: 2.4

Query block: For the compound shown here, C=C(C)[C@@H]1CC[C@]2(C(=O)O)CC[C@]3(C)C(CCC4[C@@]5(C)CC[C@H](OC(=O)c6cccc(C(F)(F)F)c6)C(C)(C)C5CC[C@]43C)C12 (some centres not stated) , give the reported IC50.
Result block: 0.9

Query block: Given the compound C=C(C)[C@@H]1CC[C@]2(C(=O)O)CC[C@]3(C)C(CCC4[C@@]5(C)CC[C@H](OC(=O)c6ccc(CCCCC)cc6)C(C)(C)C5CC[C@]43C)C12 (some centres not stated) , what is its reported IC50?
Result block: 1.9

Query block: Data request, read-out IC50, for C=CC(=O)OC(=O)[C@]12CC[C@@H](C(C)C)C1C1CCC3[C@@]4(C)CC[C@H](O)C(C)(C)C4CC[C@@]3(C)[C@]1(C)CC2 (some centres not stated)
Result block: 2

Query block: Which value of IC50 has been reported for CC(C)[C@@H]1CC[C@]2(C(=O)O)CC[C@]3(C)C(CCC4[C@@]5(C)CC[C@H](OC(=O)c6cc(F)cc(F)c6)C(C)(C)C5CC[C@]43C)C12 (some centres not stated) in the records?
Result block: 0.7

Query block: Endpoint output: IC50 of CC(C)[C@@H]1CC[C@]2(C(=O)O)CC[C@]3(C)C(CCC4[C@@]5(C)CC[C@H](OC(=O)c6ccccc6C(F)(F)F)C(C)(C)C5CC[C@]43C)C12 (some centres not stated) . Value?
Result block: 2.6

Query block: What value of IC50 has been recorded for this entry: COc1ccc(NNC2CC[C@@]3(C)C(CC[C@]4(C)C3CCC3C5[C@H](C(C)C)CC[C@]5(C(=O)O)CC[C@]34C)C2(C)C)cc1 (some centres not stated)
Result block: 0.4

Query block: Look up IC50 for this compound: CC(C)[C@@H]1CC[C@]2(C(=O)O)CC[C@]3(C)C(CCC4[C@@]5(C)CC[C@H](OC(=O)c6ccc(F)cc6F)C(C)(C)C5CC[C@]43C)C12 (some centres not stated)
Result block: 0.7

New cases:
Query block: State the recorded IC50 for this entry: C=C(C)[C@@H]1CC[C@]2(C(=O)O)CC[C@]3(C)[C@H](CC[C@@H]4[C@@]5(C)CC[C@H](O)C(C)(C)[C@@H]5CC[C@]43C)[C@@H]12 [BETULINIC ACID]
Result block: 1.2
